# Test system: primary culture of human hepatocytes (Hep)
# protocol-description: toxicity against primary culture of human hepatocytes
# Assay type: cell-based
# particulars: Hepatocyte, tested range 0.1–100 μM
pIC50: −log10 of the molar value.

| compound | pIC50 |
| --- | --- |
| CC(C)=CCc1c2c(c3occ(-c4ccc(O)c(O)c4)c(=O)c3c1O)C=CC(C)(C)O2 [pomiferin] | < 4.30 |

###

# System: colorectal adenocarcinoma (Caco-2)
# protocol-description: in vitro cytotoxicity, MTT assay
# Format: cell-based, human
# particulars: mean ± SD, at least three independent experiments
pIC50: −log10 of the molar value.
Reported pIC50 values for the following compounds.

| smiles-notation | pIC50 |
| --- | --- |
| CC(C)=CCc1c2c(c3occ(-c4ccc(O)c(O)c4)c(=O)c3c1[O-])C=CC(C)(C)O2.CO.CO.O=[N+]([O-])[O-].[Cu+2].c1cnc2c(c1)ccc1cccnc12 | 5.38 |
| CC(C)=CCc1c2c(c3occ(-c4ccc(O)c(O)c4)c(=O)c3c1[O-])C=CC(C)(C)O2.CO.CO.O=[N+]([O-])[O-].[Cu+2].c1ccc(-c2ccccn2)nc1 | 4.86 |
| CC(C)=CCc1c2c(c3occ(-c4ccc(O)c(O)c4)c(=O)c3c1[O-])C=CC(C)(C)O2.CO.O=[N+]([O-])[O-].[Cu+2].c1ccc(-c2ccnc3c2ccc2c(-c4ccccc4)ccnc23)cc1 | 4.64 |
| CC(C)=CCc1c2c(c3occ(-c4ccc(O)c(O)c4)c(=O)c3c1[O-])C=CC(C)(C)O2.Cc1ccnc(-c2cc(C)ccn2)c1.O.O.O=[N+]([O-])[O-].[Cu+2] | 5.29 |
